Reference source: patent US12447153B2

Molecular target: ErbB2 WT (Homo sapiens (Human), UniProt P04626)
Sequence (P04626 23-1255): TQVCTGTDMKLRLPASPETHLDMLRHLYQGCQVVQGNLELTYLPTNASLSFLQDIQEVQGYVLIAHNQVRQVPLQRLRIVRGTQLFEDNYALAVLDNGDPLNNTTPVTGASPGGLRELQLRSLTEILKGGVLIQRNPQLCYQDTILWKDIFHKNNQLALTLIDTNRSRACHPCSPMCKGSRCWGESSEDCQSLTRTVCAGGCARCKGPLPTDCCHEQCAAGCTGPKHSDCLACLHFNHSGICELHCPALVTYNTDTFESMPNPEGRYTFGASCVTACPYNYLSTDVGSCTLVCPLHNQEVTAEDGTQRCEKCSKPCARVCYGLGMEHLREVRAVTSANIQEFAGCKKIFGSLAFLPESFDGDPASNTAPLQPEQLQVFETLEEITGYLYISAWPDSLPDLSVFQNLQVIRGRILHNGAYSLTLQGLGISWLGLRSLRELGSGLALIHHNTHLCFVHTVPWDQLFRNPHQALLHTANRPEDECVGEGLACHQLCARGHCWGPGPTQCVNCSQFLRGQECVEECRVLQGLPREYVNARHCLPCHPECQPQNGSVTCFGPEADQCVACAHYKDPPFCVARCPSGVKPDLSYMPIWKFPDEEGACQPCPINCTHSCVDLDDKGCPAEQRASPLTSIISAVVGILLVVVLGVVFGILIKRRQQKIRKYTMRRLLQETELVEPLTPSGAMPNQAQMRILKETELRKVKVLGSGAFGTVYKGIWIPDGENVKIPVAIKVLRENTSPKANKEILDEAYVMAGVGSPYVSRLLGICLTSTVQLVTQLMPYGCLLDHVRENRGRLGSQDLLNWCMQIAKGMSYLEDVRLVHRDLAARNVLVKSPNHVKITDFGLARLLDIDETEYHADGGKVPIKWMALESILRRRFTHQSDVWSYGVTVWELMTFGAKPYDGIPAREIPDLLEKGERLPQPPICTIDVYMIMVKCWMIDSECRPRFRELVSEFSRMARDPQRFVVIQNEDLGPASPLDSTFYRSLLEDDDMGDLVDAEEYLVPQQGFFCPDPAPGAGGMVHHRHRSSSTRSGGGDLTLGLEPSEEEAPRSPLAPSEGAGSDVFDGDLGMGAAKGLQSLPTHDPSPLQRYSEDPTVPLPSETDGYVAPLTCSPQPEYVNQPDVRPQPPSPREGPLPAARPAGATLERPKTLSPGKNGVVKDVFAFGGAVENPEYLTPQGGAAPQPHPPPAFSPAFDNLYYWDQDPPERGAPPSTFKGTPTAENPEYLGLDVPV
Assay: ErbB Enzyme Assay (HTRF KinEASE-TK), Assay 2
Assay type: biochemical
Details: ErbB2 WT enzyme assay
parameter_measured: IC50

Asked: For the compound `C=CC(=O)N1CC2CC(C1)N2c1ccc2ncnc(Nc3cc(C)c(Oc4ccc5c(c4)ncn5C)cc3F)c2n1` , report IC50.
Given back: 55.6 nM

Asked: For the compound `C=CC(=O)N1C2CCC1CN(c1ccc3ncnc(Nc4ccc(Oc5ccn6ncnc6c5)c(C)c4F)c3n1)C2` , report IC50.
Given back: 12 nM

Asked: For the compound `C=CC(=O)N1C[C@H]2C[C@@H]1CN(c1ccc3ncnc(Nc4cc(Cl)c(Oc5cnc6c(c5)ncn6C)cc4F)c3n1)C2` , report IC50.
Given back: 1170 nM

Asked: For the compound `C=CC(=O)N1CCC12CN(c1ccc3ncnc(Nc4cc(Cl)c(Oc5ccn6ncnc6c5)cc4F)c3n1)C2` , report IC50.
Given back: 44.6 nM

Asked: For the compound `C=CC(=O)N1CCN(c2ccc3ncnc(Nc4ccc(Oc5ccn6ncnc6c5)c(C)c4F)c3n2)CC12CC2` , report IC50.
Given back: 7 nM

Asked: For the compound `C=CC(=O)N1CCCN(c2ccc3ncnc(Nc4cc(C)c(Oc5ccn6ncnc6c5)cc4F)c3n2)CC1(C)C` , report IC50.
Given back: 41.5 nM

Asked: For the compound `C=CC(=O)N1C[C@H]2C[C@@H]1[C@H](c1ccc3ncnc(Nc4ccc(Oc5ccn6ncnc6c5)c(Cl)c4F)c3n1)C2` , report IC50.
Given back: 8.7 nM

###

Consider the following compounds; for each one, report its IC50.
Target: ErbB2 with Exon 20 YVMA insertion (HER2-YVMA) (Homo sapiens (Human), UniProt P04626, INS775YVMA)
Sequence (P04626 other isoform, or with tags, fused parts or gaps ins YVMA behind 775): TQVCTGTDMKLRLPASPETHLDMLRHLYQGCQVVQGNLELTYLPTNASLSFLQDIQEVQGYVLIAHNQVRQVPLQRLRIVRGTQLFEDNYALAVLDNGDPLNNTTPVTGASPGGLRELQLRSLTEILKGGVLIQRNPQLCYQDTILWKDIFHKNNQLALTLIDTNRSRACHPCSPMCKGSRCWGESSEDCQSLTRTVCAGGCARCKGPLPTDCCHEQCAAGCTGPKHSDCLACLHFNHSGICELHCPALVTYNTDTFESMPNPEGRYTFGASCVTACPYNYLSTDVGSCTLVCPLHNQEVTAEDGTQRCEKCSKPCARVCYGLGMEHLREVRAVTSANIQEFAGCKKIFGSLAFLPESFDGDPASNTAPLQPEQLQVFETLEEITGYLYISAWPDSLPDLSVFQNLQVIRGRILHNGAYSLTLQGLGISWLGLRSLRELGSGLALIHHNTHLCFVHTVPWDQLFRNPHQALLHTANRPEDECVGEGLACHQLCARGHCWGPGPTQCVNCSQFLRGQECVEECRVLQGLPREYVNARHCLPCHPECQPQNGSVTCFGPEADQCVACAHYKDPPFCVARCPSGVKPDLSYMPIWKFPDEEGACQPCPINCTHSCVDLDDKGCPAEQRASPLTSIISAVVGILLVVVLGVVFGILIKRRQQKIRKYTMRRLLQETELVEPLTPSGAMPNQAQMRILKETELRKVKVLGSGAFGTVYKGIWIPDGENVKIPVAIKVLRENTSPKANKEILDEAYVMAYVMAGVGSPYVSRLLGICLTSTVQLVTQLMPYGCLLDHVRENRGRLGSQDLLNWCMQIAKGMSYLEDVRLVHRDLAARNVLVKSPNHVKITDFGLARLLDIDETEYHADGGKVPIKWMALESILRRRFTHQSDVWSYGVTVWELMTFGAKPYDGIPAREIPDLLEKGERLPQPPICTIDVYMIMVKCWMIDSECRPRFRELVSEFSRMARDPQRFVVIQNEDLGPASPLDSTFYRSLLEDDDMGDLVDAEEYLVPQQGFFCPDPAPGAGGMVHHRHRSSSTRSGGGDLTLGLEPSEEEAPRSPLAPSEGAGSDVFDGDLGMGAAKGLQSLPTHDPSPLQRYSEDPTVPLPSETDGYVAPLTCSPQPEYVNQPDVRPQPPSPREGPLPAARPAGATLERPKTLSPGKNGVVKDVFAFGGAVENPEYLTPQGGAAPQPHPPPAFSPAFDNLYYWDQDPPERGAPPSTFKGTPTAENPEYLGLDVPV
Experiment: Cellular Phosphorylation Assay, Assay 4 (constitutive ErbB2 phosphorylation, NIH 3T3 cells)
Assay type: cell-based
Details: ErbB2 YVMA phosphorylation
# unit: nM | format: bare number

Asked: For the compound C=CC(=O)N1C[C@@H]2C[C@H]1CN(c1ccc3ncnc(Nc4cc(Cl)c(Oc5ccc6c(c5)ncn6C)cc4F)c3n1)C2 [Example 248] , report IC50.
Given back: 14.4

Asked: For the compound C=CC(=O)N1CCCC(c2ccc3ncnc(Nc4ccc(Oc5ccn6ncnc6c5)c(C)c4F)c3n2)CC1 (centres unmarked) [Example 189] , report IC50.
Given back: 41.2

Asked: For the compound C=CC(=O)N1[C@@H]2CC[C@H]1CC(c1ccc3ncnc(Nc4cc(C)c(Oc5ccn6ncnc6c5)cc4F)c3n1)C2 (some centres unmarked) [Example 194] , report IC50.
Given back: 33.9

Asked: For the compound C=CC(=O)N1CC[C@H]2C[C@H](c3ccc4ncnc(Nc5cc(C)c(Oc6ccn7ncnc7c6)cc5F)c4n3)C[C@H]21 (racemic) [Example 205] , report IC50.
Given back: 24

Asked: For the compound C=CC(=O)N1CCC[C@@H](c2ccc3ncnc(Nc4ccc(Oc5ccc6c(c5)ncn6C)c(C)c4F)c3n2)C1 (racemic) [Example 144] , report IC50.
Given back: 11.7

Asked: For the compound C=CC(=O)N1CCC(Oc2ccc3ncnc(Nc4ccc(Oc5cnn6ccnc6c5)c(Cl)c4)c3n2)CC1 [Example 54] , report IC50.
Given back: 40

Asked: For the compound C=CC(=O)N1CCCCC(c2ccc3ncnc(Nc4ccc(Oc5ccn6ncnc6c5)c(C)c4)c3n2)C1 (centres unmarked) [Example 204] , report IC50.
Given back: 20.8

Asked: For the compound C=CC(=O)N1CC[C@H](c2ccc3ncnc(Nc4cc(C)c(Oc5ccc6c(c5)ncn6C)cc4F)c3n2)CC(C)(C)C1 (racemic) [Example 139] , report IC50.
Given back: 32.5

Asked: For the compound C=CC(=O)N1C[C@H]2C[C@@H]1CN(c1ccc3ncnc(Nc4cc(C)c(Oc5ccc6c(c5)ncn6C)cc4F)c3n1)C2 [Example 119] , report IC50.
Given back: 9.4

Asked: For the compound C=CC(=O)N1CCN(c2ccc3ncnc(Nc4ccc(Oc5ccc6c(c5)ncn6C)c(C)c4)c3n2)CC1 [Example 105] , report IC50.
Given back: 5

Asked: For the compound C=CC(=O)N1CCCCC(c2ccc3ncnc(Nc4ccc(Oc5ccc6c(c5)ncn6C)c(C)c4)c3n2)C1 (centres unmarked) [Example 126] , report IC50.
Given back: 12.2

Asked: For the compound C=CC(=O)N1CCN(c2nc3c(Nc4ccc(Oc5ccn6ncnc6c5)c(Cl)c4F)ncnc3cc2OC)CC1 [Example 148] , report IC50.
Given back: 4.4

Asked: For the compound C=CC(=O)N1C[C@@H]2C[C@H]1C[C@H]2c1ccc2ncnc(Nc3ccc(Oc4ccn5ncnc5c4)c(C)c3F)c2n1 (racemic) [Example 199] , report IC50.
Given back: 22.3

Asked: For the compound C=CC(=O)N1CCC(Oc2ccc3ncnc(Nc4ccc(Oc5cnn6ccnc6c5)c(C)c4)c3n2)CC1 [Example 8] , report IC50.
Given back: 47.3
